- experiment-description: AUC (0 to last) in male Sprague-Dawley rat at 0.5 mg/kg, iv measured after 24 hrs by LC-MS/MS analysis
- Assay type: ADME, organism-based
- experimental-setup: in vivo
outcome-measure: AUC(0-t) at 24 h (ng·h/mL)
Hi! Could you send only the number? It should be in ng·h/mL, unit omitted.

// below: answered compounds
> print(dat)
                            chemical.string  unit.descriptor  observed.result
1  COCc1ncc2c(-c3nc4cc(F)c(OCCOC(=O)Nc5cc(F)cc(C#N)c5)cc4s3)cc(C)cc2n1          ng·h/mL              950
2  COc1ncc2c(-c3nc4cc(F)c5c(c4s3)C[C@H](COC(=O)Nc3cc(F)cc(C#N)c3)O5)cc(C)cc2n1          ng·h/mL              808

Would you kindly look at the next entry?
Entry `COc1ncc2c(-c3nc4cc(F)c5c(c4s3)C[C@H](COC(=O)Nc3cccc(C#N)c3)O5)cc(C)cc2n1` : reported AUC(0-t) at 24 h = ? 636
